Attribution: paper PMC11601558

Assay: JNT-517 plasma pharmacokinetics in healthy volunteers
Format: in vivo, human
Conditions: human, plasma, oral; SAD 50 mg; min, max 0.5, 2.0; read-out: Median Tmax
measurement-type: Tmax (min)
The reply should contain only the number, in min.

Task: # get_value(readout='Tmax', item= NC(=O)N1CCC[C@@H](N(C(=O)NCc2ccc(OC(F)(F)F)cc2F)C2CC2)C1 )
Result: 45

---

Experiment: JNT-517 plasma pharmacokinetics in healthy volunteers
Format: in vivo, human
Conditions: human, plasma, oral; SAD 10 mg; min, max 0.5, 1.07; read-out: Median Tmax
measurement-type: Tmax (min)
The reply should contain only the number, in min.

Task: # get_value(readout='Tmax', item= NC(=O)N1CCC[C@@H](N(C(=O)NCc2ccc(OC(F)(F)F)cc2F)C2CC2)C1 )
Result: 45
